# test_target: Feline_OSMR_hlgG1_Fc (feline)
# Sequence (chain, as listed by the source limits assumed, form in doubt): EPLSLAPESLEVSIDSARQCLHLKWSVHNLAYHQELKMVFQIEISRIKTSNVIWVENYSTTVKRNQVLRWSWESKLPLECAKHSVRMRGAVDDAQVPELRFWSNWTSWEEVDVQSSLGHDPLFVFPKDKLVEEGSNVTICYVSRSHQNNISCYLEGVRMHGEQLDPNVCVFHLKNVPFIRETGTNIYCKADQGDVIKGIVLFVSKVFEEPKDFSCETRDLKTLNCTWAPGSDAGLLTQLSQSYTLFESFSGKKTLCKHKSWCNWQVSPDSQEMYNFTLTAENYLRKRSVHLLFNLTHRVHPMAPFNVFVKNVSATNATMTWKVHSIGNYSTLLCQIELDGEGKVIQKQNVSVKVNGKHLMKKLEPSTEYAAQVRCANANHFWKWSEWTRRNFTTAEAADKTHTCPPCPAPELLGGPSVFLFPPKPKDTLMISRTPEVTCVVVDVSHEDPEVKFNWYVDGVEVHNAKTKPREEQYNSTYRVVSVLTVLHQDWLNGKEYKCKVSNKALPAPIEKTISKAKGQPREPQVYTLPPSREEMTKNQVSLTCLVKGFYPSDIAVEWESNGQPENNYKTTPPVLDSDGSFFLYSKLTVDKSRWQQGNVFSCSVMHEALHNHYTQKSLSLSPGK
# assay_summary: SPR Biacore
pKd: −log10 of the molar value.
// not satisfied strictly below 8 in pKd; satisfied otherwise

1. Mu_09E09_VL (SEQ ID NO: 37)_Y32A (antibody, V domains shown) VH: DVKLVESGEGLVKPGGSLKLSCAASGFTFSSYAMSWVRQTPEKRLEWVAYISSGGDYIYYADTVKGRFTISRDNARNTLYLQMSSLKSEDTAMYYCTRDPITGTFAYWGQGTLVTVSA VL: DLQMTQTTSSLSASLGDRVTISCRASQDINNALNWYQQKPDGTVKLLIYYTSTLHSGVPSRFSGSGSGTDYSLTISNLEQEDIATYFCQQGNTLPWTFGGGTKLEIKR: satisfied
2. Mu_09E09_VL (SEQ ID NO: 37)_N34A (antibody, V domains shown) VH: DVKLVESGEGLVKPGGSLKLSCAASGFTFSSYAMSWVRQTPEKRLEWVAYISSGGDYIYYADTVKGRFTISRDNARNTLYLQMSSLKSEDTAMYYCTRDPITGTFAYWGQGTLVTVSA VL: DLQMTQTTSSLSASLGDRVTISCRASQDINNYLAWYQQKPDGTVKLLIYYTSTLHSGVPSRFSGSGSGTDYSLTISNLEQEDIATYFCQQGNTLPWTFGGGTKLEIKR: satisfied
3. Canine_OSM (ligand) SCSDKYPELLGQLQKQADFMQHTNTLLDLYIRSQGLDKNGLKEHCRERPGAFPSKDALQRLSRRVFLRTLDTTLGQVLLRLAALEQDIPKAQDLEMLSGVKLNIRGFKNNIHCMAQLLPGSSETTEPTPTSPGASPSPTPTLDTFQRRLEGCRFLHGYHRFMRSVGQVFREWGKSLSRSRR: not satisfied
